# measurementProtocol: Solubility of the active in lipophilic vehicles at 25° C., HPLC method
# condition: oil or lipid, in medium chain triglycerides Mygliol 812N
reportedEndpoint: solubility (µg/mL)
Your answer is read as µg/mL, so omit the unit and give the number.

## Input I'd like to know its solubility. The compound in question is "COc1ccc2c(c1)[C@]13CCCC[C@@H]1[C@H](C2)N(C)CC3"
## Output 120
